- Target Or Test System: Alpha-2C adrenergic receptor (Homo sapiens) (UniProt P18825)
- Sequence (P18825 whole entry, looked up): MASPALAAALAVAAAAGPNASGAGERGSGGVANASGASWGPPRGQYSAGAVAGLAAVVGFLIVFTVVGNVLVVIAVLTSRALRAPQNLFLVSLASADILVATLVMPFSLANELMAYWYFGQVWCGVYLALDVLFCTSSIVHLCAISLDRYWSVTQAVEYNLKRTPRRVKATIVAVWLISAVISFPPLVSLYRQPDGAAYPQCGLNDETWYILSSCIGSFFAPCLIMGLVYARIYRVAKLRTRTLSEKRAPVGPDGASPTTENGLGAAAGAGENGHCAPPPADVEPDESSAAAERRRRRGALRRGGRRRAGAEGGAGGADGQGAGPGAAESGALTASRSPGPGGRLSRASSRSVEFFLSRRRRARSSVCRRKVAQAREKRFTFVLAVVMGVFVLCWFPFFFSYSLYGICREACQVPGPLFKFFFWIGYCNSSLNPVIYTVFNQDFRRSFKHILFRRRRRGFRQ
- Assay Text: compounds altering alpha2C-coupled GIRK flux – cell-based, HEK293 alpha2C/GIRK1/2, thallium flux, primary screen (AID 624);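 note: slope of fluorescence ratio to pre-addition baseline per second over 15 to 24 s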
- Condition Description: thallium flux BTC fluorescence, at 10 µM, actives lie on both sides
Label 1 when slope is at or above 0.005; otherwise label -1.

Worked cases, answers included:
Compound	Classification
CCOC(=O)C1CCN(CC(=O)c2c(C)[nH]c3ccccc23)CC1	1
Cc1ccccc1OCc1nc2ccccc2c(=O)n1/N=C/c1ccco1	-1
CCN(CC)Cc1nc2c(c(=O)[nH]1)C1(CCCCC1)Cc1ccccc1-2	-1
Cc1nnc(Nc2ccccn2)c2ccccc12	-1
CC1Cc2ccccc2N1C(=O)c1cccnc1 (centres undefined)	1

In: # check: slope of `Cc1[nH]nc(-c2ccc(O)c(C)c2O)c1-c1cnn(-c2ccccc2)c1` is greater than or equal to 0.005
Out: -1

In: # check: slope of O=C(O)CCC(=O)NC1CCCCC1NC(=O)CCC(=O)O (centres undefined) is greater than or equal to 0.005
Out: 1

* * *

- Assay Text: reduction of polyQ htt aggregates in cells – imaging, exon1htt(103Q)mCFP cells, high-content imaging, primary screen (AID 483);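 note: compound exposure lasted 3 days before fixation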
- Condition Description: exon1htt(103Q)mCFP cell line, aggregate imaging, at 2 µM; stronger effect = higher value
inhibition of aggregation values by entry
Entry rule: numbers only, all in %.

In: Using the record for Cc1[nH]n(C(N)=S)c(=O)c1C(c1ccccc1)C(C#N)C#N (stereo unspecified) , report its inhibition of aggregation.
Out: -2.9

In: Using the record for COc1ccc(C2CC(c3ccc(Cl)cc3)Nc3nc(NC(=O)c4ccco4)nn32)cc1 (stereo unspecified) , report its inhibition of aggregation.
Out: -6.2

* * *

- Target Or Test System: Voltage-gated potassium channel subunit beta-2 (Rattus norvegicus)
- Assay Text: enhancers of rat Kvbeta2 NADPH turnover – biochemical, NADPH fluorescence, primary screen (AID 623);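 note: fluorescence intensity change per second fitted from 20 to 320 s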
- Condition Description: Recombinant KvBeta, NADPH fluorescence decrease slope, 10 min; at 10 µM; stronger effect = lower value
Endpoint Name: NADPH fluorescence slope
Just the number, please, no unit attached.

Use the examples below as a reference point.
Compound	NADPH fluorescence slope
OCc1nc2ccccc2n1CCCOc1ccccc1	-5.7e-05
Cc1cc(C(F)F)n2ncc(C(=O)NC3CCCCCC3)c2n1	-7.1e-05

In: Using the record for `O=c1[nH]c(Nc2ccccc2)cc2ccccc12` , report its NADPH fluorescence slope.
Out: 1.3e-05

In: Using the record for `CCOC(=O)Cn1nnnc1CN(Cc1ccc(OC)cc1)Cc1cc2cc(C)ccc2[nH]c1=O` , report its NADPH fluorescence slope.
Out: 6.1e-07

In: Using the record for Cc1occc1-c1nnc(SCC(=O)NCC2CCCO2)n1C (stereo unspecified) , report its NADPH fluorescence slope.
Out: 0.00013

In: Using the record for `O=C(CSc1nnnn1C1CCCC1)N1CCN(C(=O)c2ccco2)CC1` , report its NADPH fluorescence slope.
Out: -2.2e-05

In: Using the record for `O=C(CSc1nc2ccccc2c(=O)n1CCC(=O)N1CCCCC1)NCc1ccccc1` , report its NADPH fluorescence slope.
Out: 1.6e-05

In: Using the record for COCCCNC(=O)C1CCCN(C(=O)Nc2ccc(OC)cc2)C1 (stereo unspecified) , report its NADPH fluorescence slope.
Out: -5.2e-05

In: Using the record for `CCc1nn(CC(=O)NCCCN2CCc3ccccc3C2)c(=O)c2cc3sccc3n12` , report its NADPH fluorescence slope.
Out: 9.3e-06

In: Using the record for C=CCNC(=O)C1CC(=O)N(c2ccc(OCC(=O)Nc3ccc(OC)cc3)cc2)C1 (stereo unspecified) , report its NADPH fluorescence slope.
Out: -4.8e-05

* * *

- Assay Text: endothelial E-selectin expression blockers – imaging, HUVEC, immunofluorescence, MLSMR starter and 10KST1 sets, primary screen (AID 487);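 note: 100% = median nuclei count of all wells on the same plate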
- Condition Description: HUVEC TNFalpha-induced E-selectin immunofluorescence imaging, at 2 µM; measured here: cell number, toxicity
nuclei count values by entry
Entry rule: numbers only, all in %.

Use the examples below as a reference point.
Compound	Units	nuclei count
c1ccc(OCCCn2nnc(-c3ccncc3)n2)cc1	%	114
N#Cc1ccc(CSc2nnc(-c3ccccn3)n2-c2ccccc2)cc1	%	112
O=C(CN(Cc1ccco1)C(=O)c1cc(=O)[nH]c2ccccc12)Nc1ccccc1Br	%	105
O=C1NC(=O)C(CC(=O)N(c2ccccc2)C2(C(=O)NC3CCCC3)CCCCC2)N1 (stereo not given)	%	108

In: Using the record for Cc1c(NC(=O)C(C)OC(=O)COc2cccc3c2OC(C)(C)C3)c(=O)n(-c2ccccc2)n1C (stereo not given) , report its nuclei count.
Out: 122

* * *

inhibition values by entry
- Assay Text: inhibitors of TNFa-induced NFkB p65 translocation, primary screen, imaging, HUVEC, MLSMR starter and 10KST1 sets (AID 438);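 note: compound added about 3h40 before a 20 min TNFalpha stimulation; signal is the nuclear over cytoplasmic p65 intensity ratio per well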
- Condition Description: HUVEC TNFa-induced p65 nuclear translocation; at 2 µM, stronger effect = higher value, 0% TNFa-plus-vehicle, 100% no-TNFa wells
Entry rule: numbers only, all in %.

Use the examples below as a reference point.
Molecule	Endpoint Result
O=C(CCSc1nnc(-c2ccncc2)o1)Nc1ccccc1	-3.9
O=C(NCc1cccnc1)c1ccc(Cl)c(Cl)c1	-5
CCOC(=O)c1cccc(NC(=O)C2CCN(S(=O)(=O)c3cccs3)CC2)c1	-5.7
CCCN1CCN(C(=O)c2cn(CC(C)C)c(=O)c3cc(OC)c(OC)cc23)CC1	-25.1
CC(=O)NCCn1c(SCC(=O)NCC2CCCO2)nc2ccccc2c1=O (stereo unspecified)	-8.5
CCN(CCCNC(=O)C1CCCN(S(=O)(=O)c2cnc[nH]2)C1)c1ccccc1 (stereo unspecified)	21.8

In: Using the record for `Cc1csc(NC(=O)Nc2cccc(Cl)c2)n1` , report its inhibition.
Out: 1.8

In: Using the record for `COc1ccc(OCC(=O)Nc2ccc(N3CCOCC3)c(Cl)c2)cc1` , report its inhibition.
Out: 7.5

* * *

- Assay Text: TLR3 IRF3 reporter activation blockers – cell-based, poly I:C stimulus, luciferase, 10K MLSCN set, primary screen (AID 602277)
- Condition Description: HEK293-TLR3 RL24 IRF3 luciferase reporter, at 10 µM, stronger effect = higher value
inhibition values by entry
Entry rule: numbers only, all in %.

Compound	Endpoint Result
CN(C)S(=O)(=O)c1ccc(C(=O)N2CCCC2c2nc3ccccc3s2)cc1 (stereo not given)	-7.19

In: Using the record for `CCCn1c2c(c(O)c(C(=O)NC)c1=O)CCCC2` , report its inhibition.
Out: 25.6

In: Using the record for `CC(C)(C)NC(=O)CN(Cc1cccs1)C(=O)c1csnn1` , report its inhibition.
Out: 16.1

In: Using the record for `Cc1nnc(SCc2nnc(-c3ccccc3Br)o2)n1-c1ccccc1` , report its inhibition.
Out: 8.93

In: Using the record for `Cc1c(N=C2SCC(=O)N2c2c(C)n(C)n(-c3ccccc3)c2=O)c(=O)n(-c2ccccc2)n1C` , report its inhibition.
Out: 13.3

In: Using the record for `O=C(Nc1c(C(=O)NCc2ccco2)cnn1-c1ccccc1)c1ccc(F)cc1` , report its inhibition.
Out: 15.1

In: Using the record for COc1ccc(CCN2C(=O)CCC2(C)C(=O)NCc2cccnc2)cc1OC (stereo not given) , report its inhibition.
Out: 7.83

In: Using the record for O=C(O)CC(C(=O)Nc1cccc(C(F)(F)F)c1)C1CCCO1 (stereo not given) , report its inhibition.
Out: 7.18

In: Using the record for `CCOc1cc(C)c(C(C)C)cc1S(=O)(=O)N1CCN(C)CC1` , report its inhibition.
Out: -5.37

In: Using the record for `COc1ccc(C2(C(=O)Nc3c(C)n(C)n(-c4ccccc4)c3=O)CCCC2)cc1OC` , report its inhibition.
Out: 14.9

* * *

nuclei count values by entry
- Assay Text: endothelial E-selectin expression blockers – imaging, HUVEC, immunofluorescence, MLSMR starter and 10KST1 sets, primary screen (AID 487);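 note: 100% = median nuclei count of all wells on the same plate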
- Condition Description: HUVEC TNFalpha-induced E-selectin immunofluorescence imaging, at 2 µM; measured here: cell number, toxicity
Entry rule: numbers only, all in %.

Compound	nuclei count [%]
COc1ccccc1N1CCN(c2cc(N3CCCC3)nc(C)n2)CC1	136

Moving on to another compound below.
In: Using the record for `CCOc1ccccc1-c1nc(-c2ccc(NC(=O)Cc3ccccc3OC)cc2)no1` , report its nuclei count.
Out: 111

* * *

- Target Or Test System: Voltage-gated potassium channel subunit beta-2 (Rattus norvegicus) (UniProt P62483)
- Sequence (P62483 whole entry, looked up): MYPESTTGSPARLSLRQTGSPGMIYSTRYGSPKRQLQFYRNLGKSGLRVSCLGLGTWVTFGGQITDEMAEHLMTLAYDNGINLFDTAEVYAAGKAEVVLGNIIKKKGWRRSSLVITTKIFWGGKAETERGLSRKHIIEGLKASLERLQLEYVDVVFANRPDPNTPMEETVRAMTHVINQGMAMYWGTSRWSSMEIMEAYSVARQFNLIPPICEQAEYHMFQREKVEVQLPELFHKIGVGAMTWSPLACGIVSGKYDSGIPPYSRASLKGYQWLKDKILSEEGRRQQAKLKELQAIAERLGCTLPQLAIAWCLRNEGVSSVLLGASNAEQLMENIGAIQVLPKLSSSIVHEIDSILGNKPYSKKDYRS
- Assay Text: enhancers of rat Kvbeta2 NADPH turnover – biochemical, NADPH fluorescence, primary screen (AID 623);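 note: fluorescence intensity change per second fitted from 20 to 320 s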
- Condition Description: Recombinant KvBeta, NADPH fluorescence decrease slope, 10 min; at 10 µM; stronger effect = lower value
Endpoint Name: NADPH fluorescence slope
Just the number, please, no unit attached.

Use the examples below as a reference point.
Compound	Target Or Test System	Endpoint Result
COc1ccccc1Nc1nc(N)nc(CSc2nccc(C)n2)n1	Voltage-gated potassium channel subunit beta-2 (Rattus norvegicus) (UniProt P62483)	4.7e-05
CCc1ccccc1N1C(=O)C2CC(C)=C(C)CC2C1=O (stereo unspecified)	Voltage-gated potassium channel subunit beta-2 (Rattus norvegicus) (UniProt P62483)	-5.9e-05
Cc1c(C(=O)NCc2cccnc2)sc2ncn(CC(=O)N3CCCCC3C)c(=O)c12 (stereo unspecified)	Voltage-gated potassium channel subunit beta-2 (Rattus norvegicus) (UniProt P62483)	-1.4e-05
COc1ccc(CCNC(=O)COc2ccc(S(=O)(=O)N3CCOCC3)cc2)cc1	Voltage-gated potassium channel subunit beta-2 (Rattus norvegicus) (UniProt P62483)	-4.1e-05
C1=CC2CC1CC2CN1CCN(c2ccccc2)CC1 (stereo unspecified)	Voltage-gated potassium channel subunit beta-2 (Rattus norvegicus) (UniProt P62483)	-2.1e-05

Moving on to another compound below.
In: Using the record for `CCCCCCNC(=O)c1c(N)n(/N=C/c2ccco2)c2nc3ccccc3nc12` , report its NADPH fluorescence slope.
Out: -6e-06
